System: hiPSCs differentiating into neural rosette-like cells | Read-out: NESTIN gene expression at D13
Result Type: NESTIN gene expression at D13

**Query** GET /values?readout=NESTIN gene expression at D13&system=hiPSCs differentiating into neural rosette-like cells&item= C=CC[C@@H]1/C=C(\C)C[C@H](C)C[C@H](OC)[C@H]2O[C@@](O)(C(=O)C(=O)N3CCCC[C@H]3C(=O)O[C@H](/C(C)=C/[C@@H]3CC[C@@H](O)[C@H](OC)C3)[C@H](C)[C@@H](O)CC1=O)[C@H](C)C[C@@H]2OC [Tacrolimus]
**Result** downregulated

**Query** GET /values?readout=NESTIN gene expression at D13&system=hiPSCs differentiating into neural rosette-like cells&item= CC1=C(/C=C/C(C)=C/C=C/C(C)=C/C(=O)O)C(C)(C)CCC1 [Tretinoin (Retinoic acid)]
**Result** downregulated

* * *

System: hiPSCs differentiating into neural rosette-like cells | Read-out: ReproTracker results Neural rosette-like cells

Known results for compounds:
**Query** Suppose we examine the compound N#C[C@@H]1CCCN1C(=O)CNC12CC3CC(CC(O)(C3)C1)C2 ; what ReproTracker results Neural rosette-like cells value has been reported?
**Result** Positive

**Query** Suppose we examine the compound Cc1ncc(C[n+]2csc(CCO)c2C)c(N)n1 ; what ReproTracker results Neural rosette-like cells value has been reported?
**Result** Negative

**Query** Suppose we examine the compound COc1ccc([C@@H]2Sc3ccccc3N(CCN(C)C)C(=O)[C@@H]2OC(C)=O)cc1 ; what ReproTracker results Neural rosette-like cells value has been reported?
**Result** Positive

**Query** Suppose we examine the compound Cc1nc(Nc2ncc(C(=O)Nc3c(C)cccc3Cl)s2)cc(N2CCN(CCO)CC2)n1 ; what ReproTracker results Neural rosette-like cells value has been reported?
**Result** Positive

**Query** Suppose we examine the compound CC1(C)S[C@@H]2[C@H](NC(=O)[C@H](N)c3ccc(O)cc3)C(=O)N2[C@H]1C(=O)O ; what ReproTracker results Neural rosette-like cells value has been reported?
**Result** Negative

**Query** Suppose we examine the compound Cn1cc[nH]c1=S ; what ReproTracker results Neural rosette-like cells value has been reported?
**Result** Positive

**Query** Suppose we examine the compound CS(=O)(=O)OCCCCOS(C)(=O)=O ; what ReproTracker results Neural rosette-like cells value has been reported?
**Result** Positive

**Query** Suppose we examine the compound Cc1ccc(NC(=O)c2ccc(CN3CCN(C)CC3)cc2)cc1Nc1nccc(-c2cccnc2)n1 ; what ReproTracker results Neural rosette-like cells value has been reported?
**Result** Positive

Continuing:
**Query** Suppose we examine the compound N#C[C@@H]1C[C@@H]2C[C@@H]2N1C(=O)[C@@H](N)C12CC3CC(CC(O)(C3)C1)C2 ; what ReproTracker results Neural rosette-like cells value has been reported?
**Result** Negative

**Query** Suppose we examine the compound CC1=C(/C=C/C(C)=C/C=C/C(C)=C\C(=O)O)C(C)(C)CCC1 ; what ReproTracker results Neural rosette-like cells value has been reported?
**Result** Positive

**Query** Suppose we examine the compound CC(=O)Oc1ccccc1C(=O)O ; what ReproTracker results Neural rosette-like cells value has been reported?
**Result** Negative

* * *

System: hiPSCs differentiating into neural rosette-like cells | Read-out: ReproTracker results Neural rosette-like cells

Known results for compounds:
**Query** GET /values?readout=ReproTracker results Neural rosette-like cells&system=hiPSCs differentiating into neural rosette-like cells&item= CCCCCCCCc1ccc(CCC(N)(CO)CO)cc1
**Result** Negative

**Query** GET /values?readout=ReproTracker results Neural rosette-like cells&system=hiPSCs differentiating into neural rosette-like cells&item= O=C1NC(=O)C(c2ccccc2)(c2ccccc2)N1
**Result** Positive

**Query** GET /values?readout=ReproTracker results Neural rosette-like cells&system=hiPSCs differentiating into neural rosette-like cells&item= CC1(C)O[C@@H]2[C@@H](CO[C@@]3(COS(N)(=O)=O)OC(C)(C)O[C@@H]23)O1 [Topiramate]
**Result** Positive

**Query** GET /values?readout=ReproTracker results Neural rosette-like cells&system=hiPSCs differentiating into neural rosette-like cells&item= OC(Cn1cncn1)(Cn1cncn1)c1ccc(F)cc1F
**Result** Positive

**Query** GET /values?readout=ReproTracker results Neural rosette-like cells&system=hiPSCs differentiating into neural rosette-like cells&item= CC(O)CO (centres unmarked)
**Result** Negative

**Query** GET /values?readout=ReproTracker results Neural rosette-like cells&system=hiPSCs differentiating into neural rosette-like cells&item= C=CC[C@@H]1/C=C(\C)C[C@H](C)C[C@H](OC)[C@H]2O[C@@](O)(C(=O)C(=O)N3CCCC[C@H]3C(=O)O[C@H](/C(C)=C/[C@@H]3CC[C@@H](O)[C@H](OC)C3)[C@H](C)[C@@H](O)CC1=O)[C@H](C)C[C@@H]2OC
**Result** Positive

**Query** GET /values?readout=ReproTracker results Neural rosette-like cells&system=hiPSCs differentiating into neural rosette-like cells&item= CC1=C(/C=C/C(C)=C/C=C/C(C)=C/C(=O)O)C(C)(C)CCC1 [Tretinoin (Retinoic acid)]
**Result** Positive

Continue with the next compound.
**Query** GET /values?readout=ReproTracker results Neural rosette-like cells&system=hiPSCs differentiating into neural rosette-like cells&item= C[C@@H]1C[C@H]2[C@@H]3CCC4=CC(=O)C=C[C@]4(C)[C@@]3(F)[C@@H](O)C[C@]2(C)[C@@]1(O)C(=O)CO
**Result** Positive

* * *

system: hiPSCs trilineage differentiation (cardiomyocytes, hepatocytes, neural rosette-like cells); assay: ReproTracker trilineage differentiation, overall teratogenicity prediction; conditions: lowest tested concentration with significant decrease of at least one biomarker, trilineage assay; 'N.d. up to x' given as > x
Result Type: ReproTracker results LOAEL

Known results for compounds:
**Query** GET /values?readout=ReproTracker results LOAEL&system=hiPSCs trilineage differentiation (cardiomyocytes, hepatocytes, neural rosette-like cells)&item= CS(=O)(=O)OCCCCOS(C)(=O)=O
**Result** 0.5 µM

**Query** GET /values?readout=ReproTracker results LOAEL&system=hiPSCs trilineage differentiation (cardiomyocytes, hepatocytes, neural rosette-like cells)&item= N#C[C@@H]1C[C@@H]2C[C@@H]2N1C(=O)[C@@H](N)C12CC3CC(CC(O)(C3)C1)C2
**Result** N.d. up to 250 µM

**Query** GET /values?readout=ReproTracker results LOAEL&system=hiPSCs trilineage differentiation (cardiomyocytes, hepatocytes, neural rosette-like cells)&item= O=C1NS(=O)(=O)c2ccccc21
**Result** N.d. up to 250 µM

**Query** GET /values?readout=ReproTracker results LOAEL&system=hiPSCs trilineage differentiation (cardiomyocytes, hepatocytes, neural rosette-like cells)&item= COc1cc(C)c(/C=C/C(C)=C/C=C/C(C)=C/C(=O)O)c(C)c1C
**Result** ≤0.2 µM

Continuing:
**Query** GET /values?readout=ReproTracker results LOAEL&system=hiPSCs trilineage differentiation (cardiomyocytes, hepatocytes, neural rosette-like cells)&item= NC(=O)N1c2ccccc2C=Cc2ccccc21 [Carbamazepine]
**Result** ≤7.8 µM

**Query** GET /values?readout=ReproTracker results LOAEL&system=hiPSCs trilineage differentiation (cardiomyocytes, hepatocytes, neural rosette-like cells)&item= C[Si](Cn1cncn1)(c1ccc(F)cc1)c1ccc(F)cc1
**Result** 7.8 to 15.6 µM

**Query** GET /values?readout=ReproTracker results LOAEL&system=hiPSCs trilineage differentiation (cardiomyocytes, hepatocytes, neural rosette-like cells)&item= CC(=O)CC(c1ccccc1)c1c(O)c2ccccc2oc1=O (stereo not shown)
**Result** 62.5 to 250 µM

* * *

test system: hiPSCs differentiating into hepatocyte-like cells; assay: ReproTracker hepatocyte differentiation assay; settings: lineage call (positive/equivocal/negative)
Result Type: ReproTracker results Hepatocyte-like cells

**Query** GET /values?readout=ReproTracker results Hepatocyte-like cells&system=hiPSCs differentiating into hepatocyte-like cells&item= Nc1cccc2c1C(=O)N(C1CCC(=O)NC1=O)C2=O (stereo not drawn) [Pomalidomide]
**Result** Positive

**Query** GET /values?readout=ReproTracker results Hepatocyte-like cells&system=hiPSCs differentiating into hepatocyte-like cells&item= ClC1(Cl)C2(Cl)C3(Cl)C4(Cl)C(Cl)(Cl)C5(Cl)C3(Cl)C1(Cl)C5(Cl)C24Cl (stereo not drawn) [Mirex]
**Result** Negative

**Query** GET /values?readout=ReproTracker results Hepatocyte-like cells&system=hiPSCs differentiating into hepatocyte-like cells&item= COc1cc(C)c(/C=C/C(C)=C/C=C/C(C)=C/C(=O)O)c(C)c1C [Acitretin]
**Result** Positive

**Query** GET /values?readout=ReproTracker results Hepatocyte-like cells&system=hiPSCs differentiating into hepatocyte-like cells&item= Nc1cccc2c1CN(C1CCC(=O)NC1=O)C2=O (stereo not drawn) [Lenalidomide]
**Result** Positive

**Query** GET /values?readout=ReproTracker results Hepatocyte-like cells&system=hiPSCs differentiating into hepatocyte-like cells&item= N#C[C@@H]1CCCN1C(=O)CNC12CC3CC(CC(O)(C3)C1)C2 [Vildagliptin]
**Result** Negative

Continuing:
**Query** GET /values?readout=ReproTracker results Hepatocyte-like cells&system=hiPSCs differentiating into hepatocyte-like cells&item= O=P1(N(CCCl)CCCl)NCCCO1 (stereo not drawn) [Cyclophosphamide]
**Result** Negative

**Query** GET /values?readout=ReproTracker results Hepatocyte-like cells&system=hiPSCs differentiating into hepatocyte-like cells&item= CC(C)Cc1ccc(C(C)C(=O)O)cc1 (stereo not drawn) [Ibuprofen]
**Result** Positive

**Query** GET /values?readout=ReproTracker results Hepatocyte-like cells&system=hiPSCs differentiating into hepatocyte-like cells&item= CC(C)(C)c1nc(-c2cccc(NS(=O)(=O)c3c(F)cccc3F)c2F)c(-c2ccnc(N)n2)s1 [Dabrafenib]
**Result** Negative

**Query** GET /values?readout=ReproTracker results Hepatocyte-like cells&system=hiPSCs differentiating into hepatocyte-like cells&item= Cc1ccc(NC(=O)c2ccc(CN3CCN(C)CC3)cc2)cc1Nc1nccc(-c2cccnc2)n1 [Imatinib]
**Result** Positive
